- target desc: Neuronal acetylcholine receptor; alpha4/beta2 (Rattus norvegicus, UniProt P09483+P12390)
- Sequence (P09483 whole entry): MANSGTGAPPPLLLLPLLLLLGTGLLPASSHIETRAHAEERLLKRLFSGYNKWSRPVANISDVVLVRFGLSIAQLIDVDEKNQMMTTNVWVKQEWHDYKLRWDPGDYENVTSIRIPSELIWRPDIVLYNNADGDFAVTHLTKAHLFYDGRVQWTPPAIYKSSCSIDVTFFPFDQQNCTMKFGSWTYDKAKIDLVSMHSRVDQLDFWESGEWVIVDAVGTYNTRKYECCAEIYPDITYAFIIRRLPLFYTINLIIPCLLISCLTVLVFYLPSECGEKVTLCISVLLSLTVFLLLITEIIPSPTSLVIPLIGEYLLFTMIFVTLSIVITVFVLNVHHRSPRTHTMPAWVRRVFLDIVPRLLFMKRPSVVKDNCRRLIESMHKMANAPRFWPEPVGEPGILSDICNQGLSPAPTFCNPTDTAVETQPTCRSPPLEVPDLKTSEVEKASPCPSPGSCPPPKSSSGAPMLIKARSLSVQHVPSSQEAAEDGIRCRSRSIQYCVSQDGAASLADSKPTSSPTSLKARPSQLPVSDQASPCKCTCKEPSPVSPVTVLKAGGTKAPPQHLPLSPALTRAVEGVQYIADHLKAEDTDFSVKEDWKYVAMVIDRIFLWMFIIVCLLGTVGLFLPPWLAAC
- Sequence (P12390 whole entry): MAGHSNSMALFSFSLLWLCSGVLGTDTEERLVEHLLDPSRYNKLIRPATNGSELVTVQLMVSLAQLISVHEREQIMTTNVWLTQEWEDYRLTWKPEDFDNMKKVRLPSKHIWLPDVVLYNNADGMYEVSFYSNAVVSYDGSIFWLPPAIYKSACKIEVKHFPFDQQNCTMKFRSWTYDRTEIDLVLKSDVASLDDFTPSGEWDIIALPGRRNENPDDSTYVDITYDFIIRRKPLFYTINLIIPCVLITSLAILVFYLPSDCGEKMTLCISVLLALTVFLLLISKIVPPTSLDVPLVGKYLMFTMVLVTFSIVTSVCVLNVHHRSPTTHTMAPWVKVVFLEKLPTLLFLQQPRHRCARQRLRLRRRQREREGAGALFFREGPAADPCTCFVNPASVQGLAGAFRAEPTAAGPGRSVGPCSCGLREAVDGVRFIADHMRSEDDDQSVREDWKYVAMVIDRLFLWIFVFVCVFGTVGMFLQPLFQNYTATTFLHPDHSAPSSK
- test details: Displacement of [3H]epibatidine from rat alpha4beta2 nAChR expressed in […] cells after 3 hrs
pKi: −log10 of the molar value.
Readings of pKi for the listed compounds

| compound | assay result |
| --- | --- |
| CN1C2C=C(c3cccnc3)CC1CCC2 (centres undefined) | 7.98 |
| O=C1Cc2ccccc2N1C1CC2CCCC(C1)N2 (centres undefined) | < 4.00 |
| CC(c1ccc(C2CCCCC2)cc1)N1CCC(N2C(=O)Cc3ccccc32)CC1 (centres undefined) | < 5.00 |
| CN1C2CCC1CC(N1C(=O)Cc3ccccc31)C2 (centres undefined) | < 4.00 |
| CN1CC2CC1CC(N1C(=O)Cc3ccccc31)C2 (centres undefined) | < 5.00 |

Lookup: pKi / Neuronal acetylcholine receptor; alpha4/beta2 (Rattus norvegicus, UniProt P09483+P12390) / CCC(C)(C)C1CCC(N2CCC(C3C(=O)Nc4ccccc43)CC2)CC1 (centres undefined) < 5.00

Lookup: pKi / Neuronal acetylcholine receptor; alpha4/beta2 (Rattus norvegicus, UniProt P09483+P12390) / CN1C2CCCC1CC(N1C(=O)Cc3ccccc31)C2 (centres undefined) < 4.00

Lookup: pKi / Neuronal acetylcholine receptor; alpha4/beta2 (Rattus norvegicus, UniProt P09483+P12390) / O=C1Cc2ccccc2N1C1CC2CC(C1)N(Cc1ccccc1)C2 (centres undefined) < 5.00

Lookup: pKi / Neuronal acetylcholine receptor; alpha4/beta2 (Rattus norvegicus, UniProt P09483+P12390) / CC1CN(Cc2ccccc2)CCC1N1C(=O)Cc2ccccc21 (centres undefined) < 5.00
